Test system: FER
Set-up: species or system human, MV4-11 + K-562 + COLO205 + SK-N-BE2 + OVCAR-8
Conditions: read-out: apparent Kd; compound concentrations:100 nM and 1000 nM (sheet 'Samples'); n = 1
quantity-measured: potency estimated from few doses (nM)

• Cc1ccc2c(-c3ccncc3)c(-c3ccc(F)cc3)nn2c1.Cl [GW461484A] = 259
• COc1cc2c(cc1Nc1nc(Nc3ccsc3C(N)=O)c3cc[nH]c3n1)N(C(=O)CN(C)C)CCC2(C)C [GSK2163632A] = 82.7
• COc1cc2ncn(-c3cc(OCCCc4ccccc4)c(C(N)=O)s3)c2cc1OC [GSK205189A] = 55.1

The measured values listed here are drawn from paper PMC11062922.
